measured on: IDO1 (Homo sapiens)
Construct: HeLa cells were treated with a test compound in the presence of IFNγ, which induces IDO1 expression; endogenous in cells
assay details: Cell-based (HeLa) assay for measurement of IDO1 inhibition (kynurenine levels in supernatant after IFNγ induction)
setup conditions: H1-HeLa cells, IFNγ-induced IDO1, 48 hour incubation, kynurenine absorbance at 480 nm; geometric mean of a minimum of four determinations
measured property: EC50
Record the result as a number with its unit.

Please review the entries below; each comes with its answer.
> print(dat)
                                   compound  assay.result
1  O=C(Nc1ccc(F)cc1)c1cc(-c2cccn3c(-c4ccnc5ccccc45)ncc23)ccc1C(F)(F)F [Example 21]        183 nM
2  Cc1ccc(-c2cccn3c(-c4cccc(F)c4F)ncc23)nc1C(=O)Nc1ccc(F)cc1 [Example 57]       76.8 nM
3  Cc1ccc(-c2cccn3c(-c4cccc(F)c4F)nnc23)cc1C(=O)Nc1ccc(F)cc1 [Example 20]        192 nM

Specify reported EC50 for the compound shown: Cc1ncc(-c2cccn3c(-c4cccc(F)c4F)ncc23)cc1C(=O)Nc1ccc(F)cn1 [Example 60]
21.1 nM

Specify reported EC50 for the compound shown: Cc1ncc(-c2cccn3c(-c4cccc(F)c4F)cnc23)cc1C(=O)Nc1ccc(Cl)cc1 [Example 61]
29.9 nM

---

In this section, each of the molecules is paired with its reported EC50.
measured on: IDO1 (Homo sapiens, UniProt P14902)
Construct: HeLa cells were treated with a test compound in the presence of IFNγ, which induces IDO1 expression; endogenous in cells
Sequence (P14902 whole entry): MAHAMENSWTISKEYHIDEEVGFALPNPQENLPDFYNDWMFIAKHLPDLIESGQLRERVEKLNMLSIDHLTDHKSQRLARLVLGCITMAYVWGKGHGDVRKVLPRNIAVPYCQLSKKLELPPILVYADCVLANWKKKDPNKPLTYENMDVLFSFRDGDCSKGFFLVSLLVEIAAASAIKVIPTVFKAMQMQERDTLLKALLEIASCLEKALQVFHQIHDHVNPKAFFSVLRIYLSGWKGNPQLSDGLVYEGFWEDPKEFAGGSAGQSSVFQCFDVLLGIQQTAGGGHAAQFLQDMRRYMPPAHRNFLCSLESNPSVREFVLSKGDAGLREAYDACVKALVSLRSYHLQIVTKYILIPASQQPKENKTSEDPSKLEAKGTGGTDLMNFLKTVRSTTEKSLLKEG
assay details: Cell-based (HeLa) assay for measurement of IDO1 inhibition (kynurenine levels in supernatant after IFNγ induction)
setup conditions: H1-HeLa cells, IFNγ-induced IDO1, 48 hour incubation, kynurenine absorbance at 480 nm; geometric mean of a minimum of four determinations
Express the result in nM but write the number alone.

> print(dat)
                         compound.structure  assay.result
1  Cc1ncc(-c2cccn3c(-c4ccccc4F)ncc23)cc1C(=O)Nc1ccc(F)cc1          15.7

Specify reported EC50 for the molecule shown: Cc1nc(-c2cccc(F)c2F)n2cccc(-c3ccc(C(F)(F)F)c(C(=O)Nc4ccc(F)cc4)c3)c12
16.9

Specify reported EC50 for the molecule shown: O=C(Nc1ccc(F)cc1)c1cc(-c2cccn3c(-c4cccc(F)c4F)ncc23)cnc1C1CC1
17.5

Specify reported EC50 for the molecule shown: Cc1ccc(-c2cccn3c(-c4ncccn4)ncc23)cc1C(=O)Nc1ccc(F)cc1
24.2

---

In this section, each of the compounds is paired with its reported pEC50.
measured on: IDO1 (Homo sapiens, UniProt P14902)
Construct: HeLa cells were treated with a test compound in the presence of IFNγ, which induces IDO1 expression; endogenous in cells
assay details: Cell-based (HeLa) assay for measurement of IDO1 inhibition (kynurenine levels in supernatant after IFNγ induction)
setup conditions: H1-HeLa cells, IFNγ-induced IDO1, 48 hour incubation, kynurenine absorbance at 480 nm; geometric mean of a minimum of four determinations
Please report pEC50 as the negative decimal logarithm of the molar concentration, giving only the number.

> print(dat)
                                   compound  assay.result
1  Cc1ncc(-c2cccn3c(-c4ccc(F)cc4F)ncc23)cc1C(=O)Nc1ccc(F)cc1 [Example 89]          7.51
2  O=C(Nc1ccc(F)cc1)c1cc(-c2cccn3c(-c4ncco4)ncc23)ccc1C(F)(F)F [Example 46]          7.79
3  Cc1ncc(-c2cccn3c(C4CC4)ncc23)cc1C(=O)Nc1ccc(F)cc1 [Example 90]          5.53
4  O=C(Nc1ccc(F)cc1)c1cc(-c2cccn3c(-c4cccc(F)c4F)ncc23)ccc1Cl [Example 70]          7.91
5  Fc1ccc2[nH]c(-c3cc(-c4cccn5c(-c6cccc(F)c6F)ncc45)cnc3C(F)(F)F)nc2c1 [Example 98]          7.44

Specify reported pEC50 for the compound shown: Cc1ccccc1-c1ncc2c(-c3cnc(C)c(C(=O)Nc4ccc(F)cc4)c3)cccn12 [Example 29]
7.35

Specify reported pEC50 for the compound shown: Cc1nnc(-c2ncc3c(-c4ccc(C)c(C(=O)Nc5ccc(F)cc5)c4)cccn23)o1 [Example 2]
5.42

Specify reported pEC50 for the compound shown: Cc1ncc(-c2cccn3c(-c4cccc(F)c4F)ncc23)cc1C(=O)Nc1ccc(OC(F)(F)F)cc1 [Example 58]
6.96

Specify reported pEC50 for the compound shown: Cn1cnc(-c2ncc3c(-c4ccc(C(F)(F)F)c(C(=O)Nc5ccc(F)cc5)c4)cccn23)c1 [Example 13]
6.44

Specify reported pEC50 for the compound shown: Cc1ccc(-c2cccn3c(-c4ccccc4C)nnc23)cc1C(=O)Nc1ccc(F)cc1 [Example 12]
6.40
